biological target: Melanocyte-stimulating hormone receptor (Homo sapiens); assay: Binding affinity at melanocortin-1 receptor stably transfected in HEK 293 cells using [125I]NDP-MSH as radiolabeled
Sequence (Q01726 whole entry): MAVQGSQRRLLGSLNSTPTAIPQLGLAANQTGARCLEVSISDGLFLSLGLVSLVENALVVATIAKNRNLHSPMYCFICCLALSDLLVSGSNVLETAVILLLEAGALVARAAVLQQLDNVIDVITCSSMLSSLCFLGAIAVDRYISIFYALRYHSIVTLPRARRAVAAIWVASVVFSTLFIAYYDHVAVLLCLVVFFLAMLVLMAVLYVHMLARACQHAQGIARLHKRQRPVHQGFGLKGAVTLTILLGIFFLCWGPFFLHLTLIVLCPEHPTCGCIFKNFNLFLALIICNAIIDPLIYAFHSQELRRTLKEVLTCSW
pKi: −log10 of the molar value.
value_kind: pKi

structure_smiles_string: CN(C)C(=O)N[C@H](Cc1ccc(Cl)cc1Cl)C(=O)N1CCN(c2ccccc2CNCCc2cccs2)CC1
value_kind: pKi
endpoint_value: 5.17

A. O=C(N[C@H](Cc1ccc(Cl)cc1Cl)C(=O)N1CCN(c2ccccc2CNCCc2cccs2)CC1)N1CCCC1
B. O=C(N[C@H](Cc1ccc(Cl)cc1Cl)C(=O)N1CCN(c2ccccc2CNCCc2cccs2)CC1)OCCF
Of the two listed items, A and B , which carries the larger pKi figure? Identify your pick by its label.
B

---

molecular target: UniProt P32245; assay: Binding affinity for melanocortin-4 receptor transfected in HEK 293 cells using [125I]NDP-MSH as radioligand
pKi: −log10 of the molar value.
value_kind: pKi

Examples with answers:
compound: CN(C)C(=O)N[C@H](Cc1ccc(Cl)cc1Cl)C(=O)N1CCN(c2ccccc2CNCCc2cccs2)CC1
endpoint_value: 8.70
//
compound: NCCN[C@H](Cc1ccc(Cl)cc1Cl)C(=O)N1CCN(c2ccccc2CNCCc2cccs2)CC1
endpoint_value: 7.74
//
compound: O=C(N[C@H](Cc1ccc(Cl)cc1Cl)C(=O)N1CCN(c2ccccc2CNCCc2cccs2)CC1)OCCF
endpoint_value: 8.49
//
compound: CCNC(=O)N[C@H](Cc1ccc(Cl)cc1Cl)C(=O)N1CCN(c2ccccc2CNCCc2cccs2)CC1
endpoint_value: 8.77
//
compound: CC(C)CN[C@H](Cc1ccc(Cl)cc1Cl)C(=O)N1CCN(c2ccccc2CNCCc2cccs2)CC1
endpoint_value: 7.64

P. O=C(N[C@H](Cc1c[nH]c2ccccc12)C(=O)N1CCN(c2ccccc2CNCCc2cccs2)CC1)OCc1ccccc1
Q. COc1ccc2ccccc2c1CCCCN1CCN(CC(c2ccc(F)cc2)N2CCN(C(C)C)CC2)CC1 (configuration not stated)
Of the two listed items, P and Q , which carries the larger pKi figure? Identify your pick by its label.
Q
(Q: 8.10, P: 5.64)

I. O=C([C@@H](Cc1ccc(Cl)cc1Cl)NCc1nccs1)N1CCN(c2ccccc2CNCCc2cccs2)CC1
II. N[C@H](Cc1ccc(Cl)cc1Cl)C(=O)N1CCN(c2ccccc2CNCCc2cccs2)CC1
III. NCCCC(=O)N[C@H](Cc1ccc(Cl)cc1Cl)C(=O)N1CCN(c2ccccc2CNCCc2cccs2)CC1
IV. COC(=O)N[C@H](Cc1ccc(Cl)cc1Cl)C(=O)N1CCN(c2ccccc2CNCCc2cccs2)CC1
Please produce an ascending ranking of these compounds based on pKi. Could you list the labels in the order requested?
II, I, IV, III
(II: 7.03, I: 7.80, IV: 8.30, III: 8.70)

P. O=C(N[C@H](Cc1ccc(Cl)cc1Cl)C(=O)N1CCN(c2ccccc2CNCCc2cccs2)CC1)c1ccccc1
Q. O=C(NC1CCCC1)N[C@H](Cc1ccc(Cl)cc1Cl)C(=O)N1CCN(c2ccccc2CNCCc2cccs2)CC1
Look at P and Q . Which one has the lower recorded pKi number? Identify your pick by its label.
P

P. O=C([C@@H](Cc1ccc(Cl)cc1Cl)NCC1CC1)N1CCN(c2ccccc2CNCCc2cccs2)CC1
Q. CCOC(=O)N[C@H](Cc1ccc(Cl)cc1Cl)C(=O)N1CCN(c2ccccc2CNCCc2cccs2)CC1
Of the two listed items, P and Q , which carries the larger pKi figure? Identify your pick by its label.
Q
(Q: 8.34, P: 7.74)

A. O=C(N[C@H](Cc1ccc(Cl)cc1Cl)C(=O)N1CCN(c2ccccc2CNCCc2cccs2)CC1)OCc1ccccc1
B. O=C(N[C@H](Cc1cnc[nH]1)C(=O)N1CCN(c2ccccc2CNCCc2cccs2)CC1)OCc1ccccc1
Look at A and B . Which one has the lower recorded pKi number? Identify your pick by its label.
B
(B: 5.44, A: 7.64)

---

biological target: Melanocortin receptor 4 (Homo sapiens, UniProt P32245); experiment: Binding affinity for melanocortin-4 receptor transfected in HEK 293 cells using [125I]NDP-MSH as radioligand; type: cell-based, HEK293
Sequence (P32245 whole entry): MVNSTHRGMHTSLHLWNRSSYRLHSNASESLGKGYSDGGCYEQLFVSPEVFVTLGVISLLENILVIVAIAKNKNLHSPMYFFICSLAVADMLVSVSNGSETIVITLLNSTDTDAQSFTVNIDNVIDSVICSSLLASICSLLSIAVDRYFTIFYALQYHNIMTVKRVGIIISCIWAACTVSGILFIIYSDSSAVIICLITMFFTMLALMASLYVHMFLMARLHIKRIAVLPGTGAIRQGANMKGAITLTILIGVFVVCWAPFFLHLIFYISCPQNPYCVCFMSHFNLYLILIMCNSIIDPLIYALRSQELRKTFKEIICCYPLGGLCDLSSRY
value_kind: Ki (µM)

structure_smiles_string: O=C(N[C@H](Cc1csc2ccccc12)C(=O)N1CCN(c2ccccc2CNCCc2cccs2)CC1)OCc1ccccc1
Ki (µM): 1.1

a. CS(=O)(=O)N[C@H](Cc1ccc(Cl)cc1Cl)C(=O)N1CCN(c2ccccc2CNCCc2cccs2)CC1
b. COC(=O)CCC(=O)N[C@H](Cc1ccc(Cl)cc1Cl)C(=O)N1CCN(c2ccccc2CNCCc2cccs2)CC1
Look at a and b . Which one has the lower recorded Ki number? Identify your pick by its label.
b
(b: 0.0028 µM, a: 0.014 µM)

---

biological target: UniProt:P33032; assay: Binding affinity at melanocortin-5 receptor stably transfected in HEK 293 cells using [125I]NDP-MSH as radiolabeled
Sequence (P33032 whole entry): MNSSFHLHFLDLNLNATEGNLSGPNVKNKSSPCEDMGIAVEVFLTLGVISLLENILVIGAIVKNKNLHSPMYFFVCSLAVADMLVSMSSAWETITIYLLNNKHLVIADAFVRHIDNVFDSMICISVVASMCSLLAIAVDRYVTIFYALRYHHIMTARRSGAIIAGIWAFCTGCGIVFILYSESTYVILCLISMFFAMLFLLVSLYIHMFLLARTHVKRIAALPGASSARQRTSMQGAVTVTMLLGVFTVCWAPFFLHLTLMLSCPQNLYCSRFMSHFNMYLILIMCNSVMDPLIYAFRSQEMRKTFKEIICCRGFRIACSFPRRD
value_kind: Ki (nM)

structure_smiles_string: O=C(N[C@H](Cc1ccc(Cl)cc1Cl)C(=O)N1CCN(c2ccccc2CNCCc2cccs2)CC1)OCCF
Ki / nM: 560

A. CC(=O)N[C@H](Cc1ccc(Cl)cc1Cl)C(=O)N1CCN(c2ccccc2CNCCc2cccs2)CC1
B. CN(C)C(=O)N[C@H](Cc1ccc(Cl)cc1Cl)C(=O)N1CCN(c2ccccc2CNCCc2cccs2)CC1
Of the two listed items, A and B , which carries the larger Ki figure? Identify your pick by its label.
A
(A: 730 nM, B: 350 nM)
